Origin of measurements: patent US20240360228A1

System: T1, human chemokine (C-C motif) receptor 8 (CCR8) (human, UniProt P51685 1-355)
T1 construct: also called hCCR8
T1 sequence (P51685 whole entry): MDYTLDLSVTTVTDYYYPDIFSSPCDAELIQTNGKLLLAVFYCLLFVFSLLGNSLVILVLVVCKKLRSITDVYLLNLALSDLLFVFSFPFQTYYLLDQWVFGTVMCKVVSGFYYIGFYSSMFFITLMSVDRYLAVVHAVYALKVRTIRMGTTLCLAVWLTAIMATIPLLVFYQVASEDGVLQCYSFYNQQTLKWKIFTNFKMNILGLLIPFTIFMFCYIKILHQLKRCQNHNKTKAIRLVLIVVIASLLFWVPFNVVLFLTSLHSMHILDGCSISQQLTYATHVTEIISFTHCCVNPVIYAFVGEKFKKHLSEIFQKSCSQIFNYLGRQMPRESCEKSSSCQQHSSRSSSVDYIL
Assay Summary: flow cytometry blocking, human PBMC, CD3+ gate; competitor PE-433H
Measured % Blocking of individual entries
Value expressed in %; do not type the unit.

Solved entries:
| Binder | % Blocking (%) |
| --- | --- |
| anti-CCR8 monoclonal antibody AB8 (antibody, V domains shown, Hybridoma monoclonal; also called antibody 8; clone 8) VH: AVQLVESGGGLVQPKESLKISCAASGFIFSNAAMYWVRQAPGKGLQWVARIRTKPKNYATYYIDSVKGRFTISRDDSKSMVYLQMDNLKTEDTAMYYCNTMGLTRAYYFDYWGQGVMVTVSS VL: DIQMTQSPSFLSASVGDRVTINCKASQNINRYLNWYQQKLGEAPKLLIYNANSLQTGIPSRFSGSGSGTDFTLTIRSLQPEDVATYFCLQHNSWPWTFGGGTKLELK | 88.1 |
| anti-CCR8 monoclonal antibody AB13 (antibody, V domains shown, Hybridoma monoclonal; also called antibody 13; clone 13) VH: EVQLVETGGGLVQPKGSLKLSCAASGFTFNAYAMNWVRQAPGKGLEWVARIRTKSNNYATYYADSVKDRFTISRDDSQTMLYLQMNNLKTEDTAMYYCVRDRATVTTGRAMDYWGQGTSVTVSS VL: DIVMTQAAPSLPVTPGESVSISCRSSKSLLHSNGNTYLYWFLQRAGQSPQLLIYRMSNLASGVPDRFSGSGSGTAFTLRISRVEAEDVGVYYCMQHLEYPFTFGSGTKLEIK | 6.93 |

Could you now look at the following binder, please?
Challenge: Check the records and state % Blocking for anti-CCR8 monoclonal antibody AB7 (antibody, V domains shown, Hybridoma monoclonal; also called antibody 7; clone 7) VH: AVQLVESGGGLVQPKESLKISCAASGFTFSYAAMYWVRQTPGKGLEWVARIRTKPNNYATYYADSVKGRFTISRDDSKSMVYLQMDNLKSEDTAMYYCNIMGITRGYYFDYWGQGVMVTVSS VL: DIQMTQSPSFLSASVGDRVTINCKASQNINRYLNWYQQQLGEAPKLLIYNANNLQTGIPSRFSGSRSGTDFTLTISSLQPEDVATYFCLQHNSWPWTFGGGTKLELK
Response given: 87.5
